# System: fasted rats
# protocol_summary: Glucose tolerance test using fasted rats
# Assay type: in vivo, Male Wistar rats
# run_parameters: Rattus norvegicus, 0.5 h; dose 30 mg/kg oral, 30 min before glucose loading (1 g/kg i.p.); inhibition of increase in blood glucose relative to control at 30 min; read-out: ratio of decrease at 30 min later(%)
observed_property: inhibition in vivo at 30 mg/kg (%)
Expressed in %, but write only the number.

structure_string=C[C@H]1CC[C@H](C(=O)CCC(=O)O)CC1 reported_result=41.2
structure_string=O=C(O)CCC(=O)C1CCCCC1 reported_result=26.7
structure_string=CC(=O)CCC(=O)c1ccccc1 reported_result=18.9
structure_string=CC1(C(=O)CCC(=O)O)CCCCC1 reported_result=31.5
structure_string=O=C(O)CCC(=O)c1ccc(-c2ccccc2)cc1 reported_result=29.1

Consider the record given below.
// map CC(=O)CCC(=O)c1ccc(CO)cc1 to recorded inhibition in vivo at 30 mg/kg (system: fasted rats)
21.3
